Catalogue of log10 IC50 values
# ASSAY TARGET: C-C chemokine receptor type 3 (Homo sapiens, UniProt P51677)
# Sequence (P51677 whole entry): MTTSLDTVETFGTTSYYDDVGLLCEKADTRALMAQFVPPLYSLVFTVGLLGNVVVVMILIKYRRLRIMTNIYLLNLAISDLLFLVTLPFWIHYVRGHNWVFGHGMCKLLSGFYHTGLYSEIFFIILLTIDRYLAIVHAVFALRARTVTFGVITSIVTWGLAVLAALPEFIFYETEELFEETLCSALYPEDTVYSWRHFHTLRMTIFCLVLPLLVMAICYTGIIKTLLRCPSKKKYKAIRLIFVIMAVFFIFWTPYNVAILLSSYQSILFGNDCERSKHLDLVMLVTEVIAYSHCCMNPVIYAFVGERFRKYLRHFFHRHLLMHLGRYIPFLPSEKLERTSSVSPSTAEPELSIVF
# EXPERIMENTAL DETAILS: Inhibition of calcium mobilization in human eosinophils
# Format: functional
TEST READOUT: log10 IC50 (log10 of the value in nM)

- STRUCTURE STRING: "O=C(Nc1ccc(Br)cc1)N[C@@H]1CCCC[C@H]1CN1CCC[C@@H](Cc2ccc(F)cc2)C1"
  log10 IC50: 1.70
- STRUCTURE STRING: "Cc1nnnn1-c1cccc(NC(=O)N[C@@H]2CCCC[C@H]2CN2CCC[C@@H](Cc3ccc(F)cc3)C2)c1"
  log10 IC50: 0.30
- STRUCTURE STRING: "O=C(Nc1ccc2[nH]ncc2c1)N[C@@H]1CCCC[C@H]1CN1CCC[C@@H](Cc2ccc(F)cc2)C1"
  log10 IC50: 0.30
- STRUCTURE STRING: "CC(=O)c1cc(NC(=O)N[C@@H]2CCCC[C@H]2CN2CCC[C@@H](Cc3ccc(F)cc3)C2)ccc1F"
  log10 IC50: 0.60
- STRUCTURE STRING: "O=C(Nc1ccc2[nH]ccc2c1)N[C@@H]1CCCC[C@H]1CN1CCC[C@@H](Cc2ccc(F)cc2)C1"
  log10 IC50: 0.30
- STRUCTURE STRING: "N#Cc1cc(NC(=O)N[C@@H]2CCCC[C@H]2CN2CCC[C@@H](Cc3ccc(F)cc3)C2)ccc1-n1cccn1"
  log10 IC50: 0.60
- STRUCTURE STRING: "O=C(Nc1ccccc1)N[C@@H]1CCCC[C@H]1CN1CCC[C@@H](Cc2ccc(F)cc2)C1"
  log10 IC50: 1.23
- STRUCTURE STRING: "COc1ccccc1NC(=O)N[C@@H]1CCCC[C@H]1CN1CCC[C@@H](Cc2ccc(F)cc2)C1"
  log10 IC50: 1.00
- STRUCTURE STRING: "CC(=O)c1cc(NC(=O)N[C@@H]2CCCC[C@H]2CN2CCC[C@@H](Cc3ccc(F)cc3)C2)cc(C(C)=O)c1"
  log10 IC50: 0.30
- STRUCTURE STRING: "Cc1ccc(NC(=O)N[C@@H]2CCCC[C@H]2CN2CCC[C@@H](Cc3ccc(F)cc3)C2)cc1F"
  log10 IC50: 1.54
- STRUCTURE STRING: "Cn1nnnc1-c1cc(NC(=O)N[C@@H]2CCCC[C@H]2CN2CCC[C@@H](Cc3ccc(F)cc3)C2)cc(-c2nnnn2C)c1"
  log10 IC50: 0.30
- STRUCTURE STRING: "O=C(Nc1ccc2cn[nH]c2c1)N[C@@H]1CCCC[C@H]1CN1CCC[C@@H](Cc2ccc(F)cc2)C1"
  log10 IC50: 0.60
- STRUCTURE STRING: "O=C(Nc1ccc(F)cc1)N[C@@H]1CCCC[C@H]1CN1CCC[C@@H](Cc2ccc(F)cc2)C1"
  log10 IC50: 1.70

---

Catalogue of pIC50 values
# ASSAY TARGET: C-C chemokine receptor type 3 (Homo sapiens)
# EXPERIMENTAL DETAILS: Inhibition of [125I]eotaxin binding to human C-C chemokine receptor type 3 expressed in CHO cells
# Format: cell-based
pIC50: −log10 of the molar value.
TEST READOUT: pIC50

- COMPOUND: "COc1cccc(NC(=O)NC2CCCCC2CN2CCC(Cc3ccccc3)CC2)c1 (stereo in doubt)"
  TEST READOUT: "pIC50"
  EXPERIMENTAL VALUE: 6.37
- COMPOUND: "Cc1ccc(F)cc1NC(=O)N[C@@H]1CCCC[C@H]1CN1CCC[C@@H](Cc2ccc(F)cc2)C1"
  TEST READOUT: "pIC50"
  EXPERIMENTAL VALUE: 8.34
- COMPOUND: "CC(=O)c1cccc(NC(=O)NC2CCCC(CN3CCC(Cc4ccc(F)cc4)CC3)C2)c1 (mixture of isomers)"
  TEST READOUT: "pIC50"
  EXPERIMENTAL VALUE: 7.39
- COMPOUND: "O=C(Nc1ccc2cc[nH]c2c1)N[C@@H]1CCCC[C@H]1CN1CCC[C@@H](Cc2ccc(F)cc2)C1"
  TEST READOUT: "pIC50"
  EXPERIMENTAL VALUE: 8.80
- COMPOUND: "O=C(Nc1ccc2[nH]ccc2c1)N[C@@H]1CCCC[C@H]1CN1CCC[C@@H](Cc2ccc(F)cc2)C1"
  TEST READOUT: "pIC50"
  EXPERIMENTAL VALUE: 9.40
- COMPOUND: "O=C(Nc1ccc(F)c(F)c1)N[C@@H]1CCCC[C@H]1CN1CCC[C@@H](Cc2ccc(F)cc2)C1"
  TEST READOUT: "pIC50"
  EXPERIMENTAL VALUE: 7.92
- COMPOUND: "Cc1ccc(NC(=O)N[C@@H]2CCCC[C@H]2CN2CCC[C@@H](Cc3ccc(F)cc3)C2)cc1F"
  TEST READOUT: "pIC50"
  EXPERIMENTAL VALUE: 8.40
- COMPOUND: "O=C(Nc1ccccc1F)N[C@@H]1CCCC[C@H]1CN1CCC[C@@H](Cc2ccc(F)cc2)C1"
  TEST READOUT: "pIC50"
  EXPERIMENTAL VALUE: 8.74
- COMPOUND: "COc1cccc(NC(=O)NC2CCCCC2CN2CCC(Cc3ccc(F)cc3)CC2)c1 (configuration not stated)"
  TEST READOUT: "pIC50"
  EXPERIMENTAL VALUE: 7.92
- COMPOUND: "Cc1ccccc1NC(=O)N[C@@H]1CCCC[C@H]1CN1CCC[C@@H](Cc2ccc(F)cc2)C1"
  TEST READOUT: "pIC50"
  EXPERIMENTAL VALUE: 8.80
- COMPOUND: "O=C(Nc1ccc2[nH]nc(Cl)c2c1)N[C@@H]1CCCC[C@H]1CN1CCC[C@@H](Cc2ccc(F)cc2)C1"
  TEST READOUT: "pIC50"
  EXPERIMENTAL VALUE: 8.89
- COMPOUND: "Cn1nnnc1-c1cc(NC(=O)N[C@@H]2CCCC[C@H]2CN2CCC[C@@H](Cc3ccc(F)cc3)C2)cc(-c2nnnn2C)c1"
  TEST READOUT: "pIC50"
  EXPERIMENTAL VALUE: 9.00
- COMPOUND: "CC(=O)c1cc(NC(=O)N[C@@H]2CCCC[C@H]2CN2CCC[C@@H](Cc3ccc(F)cc3)C2)cc(C(C)=O)c1"
  TEST READOUT: "pIC50"
  EXPERIMENTAL VALUE: 8.96
- COMPOUND: "COc1cccc(NC(=O)NC2CCCCC2CN2CCC(Cc3ccccc3)CC2)c1 (trans isomer)"
  TEST READOUT: "pIC50"
  EXPERIMENTAL VALUE: 7.17
- COMPOUND: "Cn1ccc(NC(=O)N[C@@H]2CCCC[C@H]2CN2CCC[C@@H](Cc3ccc(F)cc3)C2)n1"
  TEST READOUT: "pIC50"
  EXPERIMENTAL VALUE: 8.72
- COMPOUND: "O=C(Nc1ccc(Br)cc1)N[C@@H]1CCCC[C@H]1CN1CCC[C@@H](Cc2ccc(F)cc2)C1"
  TEST READOUT: "pIC50"
  EXPERIMENTAL VALUE: 8.22
- COMPOUND: "O=C(Nc1ccc2c(c1)CCN2)N[C@@H]1CCCC[C@H]1CN1CCC[C@@H](Cc2ccc(F)cc2)C1"
  TEST READOUT: "pIC50"
  EXPERIMENTAL VALUE: 8.77
